- TESTED ON: FSHR (Homo sapiens, UniProt P23945)
- Construct: expressed in transfected cells; host or cells: CHO (Cho-FSHR-LUC-1-1-43)
- Sequence (P23945 18-695): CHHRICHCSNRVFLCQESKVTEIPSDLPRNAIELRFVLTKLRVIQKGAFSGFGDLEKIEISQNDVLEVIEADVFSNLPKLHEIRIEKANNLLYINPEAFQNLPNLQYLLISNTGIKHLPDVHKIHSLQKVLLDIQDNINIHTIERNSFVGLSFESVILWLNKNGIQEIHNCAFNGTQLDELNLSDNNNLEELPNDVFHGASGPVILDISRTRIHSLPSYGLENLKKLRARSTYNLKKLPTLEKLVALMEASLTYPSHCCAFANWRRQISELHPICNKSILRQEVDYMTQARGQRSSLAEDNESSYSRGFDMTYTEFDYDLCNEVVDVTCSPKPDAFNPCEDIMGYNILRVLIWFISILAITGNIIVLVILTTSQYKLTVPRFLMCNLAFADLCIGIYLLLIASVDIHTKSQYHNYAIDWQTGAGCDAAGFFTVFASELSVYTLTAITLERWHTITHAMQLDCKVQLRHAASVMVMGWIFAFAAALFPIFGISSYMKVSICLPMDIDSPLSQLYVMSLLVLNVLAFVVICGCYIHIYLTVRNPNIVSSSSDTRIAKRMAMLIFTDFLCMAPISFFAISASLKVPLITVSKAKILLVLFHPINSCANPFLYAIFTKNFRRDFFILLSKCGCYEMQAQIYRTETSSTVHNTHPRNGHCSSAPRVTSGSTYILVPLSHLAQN
- Sequence (P01215 25-116 partner): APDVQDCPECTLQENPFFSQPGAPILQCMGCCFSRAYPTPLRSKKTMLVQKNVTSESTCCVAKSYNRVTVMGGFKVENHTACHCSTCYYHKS
- Sequence (P01225 19-129 partner): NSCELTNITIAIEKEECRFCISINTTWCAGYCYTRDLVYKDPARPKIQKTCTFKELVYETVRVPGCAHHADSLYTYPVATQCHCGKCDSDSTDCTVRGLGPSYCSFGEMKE
- RUN DESCRIPTION: EC50 of cyclic AMP production in CHO FSHR cells + EC20 FSH (Assay A)
- Type: cell-based
- CONDITION PARAMETERS: CHO FSHR cells + EC20 FSH; Table 2; read-out: Assay A EC50 of cyclic AMP production
READOUT NAME: EC50

Recorded EC50 for Cc1ccccc1N1CCN(c2ccc(C(=O)NCc3ccc(CN(C)C)cc3)cc2NC(=O)c2ccco2)CC1 [Compound 455] on FSHR (Homo sapiens, UniProt P23945) was 0.1 to 1 µM

Recorded EC50 for Cc1ccccc1N1CCN(c2ccc(C(=O)NCC(=O)NC3CCS(=O)(=O)C3)cc2NC(=O)c2ccco2)CC1 (stereo not shown) [Compound 376] on FSHR (Homo sapiens, UniProt P23945) was 0.1 to 1 µM

Recorded EC50 for Cc1ccccc1N1CCN(c2ccc(C(=O)N[C@H]3O[C@@H](CO)[C@@H]4OC(C)(C)O[C@@H]43)cc2NC(=O)c2coc(C3CC3)n2)CC1 [Compound 309] on FSHR (Homo sapiens, UniProt P23945) was 0.1 to 1 µM

Recorded EC50 for Cc1ccc(C(=O)Nc2cc(C(=O)NCCCN3CCCC3=O)ccc2N2CCN(c3ccccc3C3CC3)CC2)o1 [Compound 523] on FSHR (Homo sapiens, UniProt P23945) was 0.1 to 1 µM

Recorded EC50 for Cc1ccccc1N1CCN(c2ccc(C(=O)NCCCN3CCCC3=O)cc2NC(=O)c2cnc(C3CC3)o2)CC1 [Compound 386] on FSHR (Homo sapiens, UniProt P23945) was 0.1 to 1 µM

Recorded EC50 for Cc1nnc(N2CCN(c3ccc(C(=O)NCCCN4CCCC4=O)cc3NC(=O)c3coc(C4CC4)n3)CC2)s1 [Compound 598] on FSHR (Homo sapiens, UniProt P23945) was 1 to 10 µM

Recorded EC50 for Cc1ccccc1N1CCN(c2ccc(C(=O)NCCCn3ccnc3)cc2NC(=O)c2coc(C3CC3)n2)CC1 [Compound 291] on FSHR (Homo sapiens, UniProt P23945) was 0.1 to 1 µM

All values here come from patent US9938262B2.
